Where do these numbers come from? They come from ChEMBL document CHEMBL1833859.

This listing pairs compounds with measured concentration at 6 h.
Assay: Drug level in rat at 10 mg/kg, po at 6 hrs
Type: ADME, organism-based
Set-up: dose 10 mg/kg, route oral
Conditions: in vivo, read-out: Drug uptake
Express it in nM; write the number only.

>  <Compound string>
O=C(c1ccc(Nc2nc(C3CC3)cn3c(-c4cn[nH]c4)cnc23)c(F)c1)N1CCOCC1

>  <Property name>
concentration at 6 h

>  <Assay result>
3500

$$$$

Let us move to another entry and its concentration at 6 h.
[ask] What value of measured concentration at 6 h is listed for Cc1cn2c(-c3cn[nH]c3)cnc2c(Nc2ccc(C(=O)N3CCOCC3)c(Cl)c2)n1 ?
[reply] 1000

---

This listing pairs compounds with measured pIC50.
Biological target: Tyrosine-protein kinase Lck (Homo sapiens, UniProt P06239)
Sequence (P06239 whole entry): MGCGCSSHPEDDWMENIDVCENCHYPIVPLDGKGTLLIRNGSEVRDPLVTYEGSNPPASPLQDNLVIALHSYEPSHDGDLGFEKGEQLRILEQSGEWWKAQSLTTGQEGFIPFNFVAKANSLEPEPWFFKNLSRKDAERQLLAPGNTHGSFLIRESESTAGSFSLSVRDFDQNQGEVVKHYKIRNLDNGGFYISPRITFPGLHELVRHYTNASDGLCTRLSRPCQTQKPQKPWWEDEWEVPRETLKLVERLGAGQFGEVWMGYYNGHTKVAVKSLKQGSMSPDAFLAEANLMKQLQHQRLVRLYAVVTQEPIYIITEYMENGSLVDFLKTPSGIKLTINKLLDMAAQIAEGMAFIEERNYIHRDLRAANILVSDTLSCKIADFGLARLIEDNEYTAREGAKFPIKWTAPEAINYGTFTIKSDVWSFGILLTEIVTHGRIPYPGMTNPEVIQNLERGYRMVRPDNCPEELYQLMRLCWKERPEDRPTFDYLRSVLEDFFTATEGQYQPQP
Assay: Inhibition of LCK
Value format note: pIC50 is -log10 of concentration (mol/L); just state the number.

>  <Compound string>
Cc1cn2c(-c3cn[nH]c3)cnc2c(Nc2ccnc(N3CCNCC3)c2)n1

>  <pIC50>
5.43

$$$$

Let us move to another entry and its pIC50.
[ask] What value of measured pIC50 is listed for Cc1cn2c(-c3cn[nH]c3)cnc2c(Nc2ccc(C(=O)N3CCNCC3)c(C(F)(F)F)c2)n1 ?
[reply] 6.14

---

Molecular target: Protein-tyrosine kinase 6 (Homo sapiens)
Assay: Inhibition of phosphorylation of SAM68 in 293 WT-PTK6 cells after 3 hrs
Format: functional, cell-based
This listing pairs compounds with measured IC50.
Express it in nM; write the number only.

>  <Compound string>
Cc1cn2c(-c3cn[nH]c3)cnc2c(Nc2ccc(C(=O)N3CCN(CCO)CC3)c(Cl)c2)n1

>  <Assay system>
Protein-tyrosine kinase 6 (Homo sapiens)

>  <IC50 (nM)>
132

$$$$
>  <Compound string>
CCc1cn2c(-c3cn[nH]c3)cnc2c(Nc2ccc(C(=O)N3CCNCC3)c(Cl)c2)n1

>  <Assay system>
Protein-tyrosine kinase 6 (Homo sapiens)

>  <IC50 (nM)>
38

$$$$

Let us move to another entry and its IC50.
[ask] What value of measured IC50 is listed for Cc1cn2c(-c3cn[nH]c3)cnc2c(Nc2ccc(C(=O)N3CCNCC3)c(C3CC3)c2)n1 ?
[reply] 40

---

Experiment: AUC (0 to 6 hrs) in mouse at 30 mg/kg, po
Type: ADME, organism-based
Parameters: time < 6 hr, dose 30 mg/kg, route oral
Conditions: plasma
Property name: AUC(0-t) at 6 h (µM·h)
Express it in µM·h; write the number only.

[ask] What value of measured AUC(0-t) at 6 h is listed for Cc1cn2c(-c3cn[nH]c3)cnc2c(Nc2ccc(C(=O)N3CCNCC3)cc2F)n1 ?
[reply] 1.4

---

This listing pairs compounds with measured pIC50.
Target: Protein-tyrosine kinase 6 (Homo sapiens)
Test: Inhibition of BRK pretreated for 30 mins by microplate reader
Value format note: pIC50 is -log10 of concentration (mol/L); just state the number.

Here are 2 compounds together with their reported answers.
>  <Compound string>
CCc1cn2c(-c3cn[nH]c3)cnc2c(Nc2ccc(C(=O)N3CCNCC3)c(Cl)c2)n1

>  <pIC50>
8.00

$$$$
>  <Compound string>
Cc1cn2c(-c3cn[nH]c3)cnc2c(Nc2ccc(C(=O)N3CCOCC3)cc2Cl)n1

>  <pIC50>
6.81

$$$$

[ask] What value of measured pIC50 is listed for Cc1cn2c(-c3cn[nH]c3)cnc2c(Nc2cc(CN3CCCCC3)ns2)n1 ?
[reply] 7.89

[ask] What value of measured pIC50 is listed for Cc1cn2c(-c3cn[nH]c3)cnc2c(Nc2ccc(C(=O)N3CCNCC3(C)C)c(Cl)c2)n1 ?
[reply] 8.00

[ask] What value of measured pIC50 is listed for Cc1cn2c(-c3cn[nH]c3)cnc2c(Nc2ccc(C(=O)N3C[C@H]4CC[C@@H]3CN4)c(Cl)c2)n1 ?
[reply] 8.15

---

Target: Protein-tyrosine kinase 6 (Homo sapiens, UniProt Q13882)
Sequence (Q13882 whole entry): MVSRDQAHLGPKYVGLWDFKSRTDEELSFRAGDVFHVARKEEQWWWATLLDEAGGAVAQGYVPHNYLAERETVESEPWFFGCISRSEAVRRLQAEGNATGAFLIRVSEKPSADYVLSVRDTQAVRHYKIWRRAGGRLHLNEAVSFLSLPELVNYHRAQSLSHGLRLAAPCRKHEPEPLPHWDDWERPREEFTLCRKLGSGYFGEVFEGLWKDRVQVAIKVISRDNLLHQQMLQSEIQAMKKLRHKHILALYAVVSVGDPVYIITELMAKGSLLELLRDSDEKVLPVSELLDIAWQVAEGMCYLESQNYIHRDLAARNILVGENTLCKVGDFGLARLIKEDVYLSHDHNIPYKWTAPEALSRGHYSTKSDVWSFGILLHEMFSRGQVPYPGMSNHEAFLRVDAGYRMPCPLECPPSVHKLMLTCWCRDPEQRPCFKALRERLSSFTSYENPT
Test: Inhibition of BRK pretreated for 30 mins by microplate reader
Property name: IC50 (nM)
Express it in nM; write the number only.

Here are 5 compounds together with their reported answers.
>  <Compound string>
Cc1cn2c(-c3cn[nH]c3)cnc2c(Nc2cc(CN3CCC(O)CC3)cs2)n1

>  <Measure unit>
nM

>  <IC50>
10

$$$$
>  <Compound string>
Cc1cn2c(-c3cn[nH]c3)cnc2c(Nc2ccc(C(=O)N3CCNCC3)c(Cl)c2)n1

>  <Measure unit>
nM

>  <IC50>
7

$$$$
>  <Compound string>
Cc1cn2c(-c3cn[nH]c3)cnc2c(Nc2ccc(C(=O)N3CCNCC3)cc2Cl)n1

>  <Measure unit>
nM

>  <IC50>
64

$$$$
>  <Compound string>
Cc1cn2c(-c3cn[nH]c3)cnc2c(Nc2ccc(C(=O)N3C[C@H]4CC[C@@H](C3)N4)c(Cl)c2)n1

>  <Measure unit>
nM

>  <IC50>
11

$$$$
>  <Compound string>
Cc1cn2c(-c3cn[nH]c3)cnc2c(Nc2ccc(C(=O)N3CCCNCC3)c(Cl)c2)n1

>  <Measure unit>
nM

>  <IC50>
34

$$$$

[ask] What value of measured IC50 is listed for O=C(c1ccc(Nc2nc(C3CC3)cn3c(-c4cn[nH]c4)cnc23)c(Cl)c1)N1CCOCC1 ?
[reply] 156

[ask] What value of measured IC50 is listed for O=C(c1ccc(Nc2nc(C3CC3)cn3c(-c4cn[nH]c4)cnc23)cc1Cl)N1CCNC2(CC2)C1 ?
[reply] 13

[ask] What value of measured IC50 is listed for Cc1cn2c(-c3cn[nH]c3)cnc2c(Nc2ccnc(N3CCNCC3)c2)n1 ?
[reply] 11

[ask] What value of measured IC50 is listed for Cc1cn2c(-c3cn[nH]c3)cnc2c(Nc2ccc(C(=O)N3CCNCC3(C)C)cc2F)n1 ?
[reply] 9

[ask] What value of measured IC50 is listed for Cc1cn2c(-c3cn[nH]c3)cnc2c(Nc2ccc(C(=O)N3CCOCC3)c(Cl)c2)n1 ?
[reply] 8

---

Target: Aurora kinase B (Homo sapiens)
Sequence (Q96GD4 whole entry): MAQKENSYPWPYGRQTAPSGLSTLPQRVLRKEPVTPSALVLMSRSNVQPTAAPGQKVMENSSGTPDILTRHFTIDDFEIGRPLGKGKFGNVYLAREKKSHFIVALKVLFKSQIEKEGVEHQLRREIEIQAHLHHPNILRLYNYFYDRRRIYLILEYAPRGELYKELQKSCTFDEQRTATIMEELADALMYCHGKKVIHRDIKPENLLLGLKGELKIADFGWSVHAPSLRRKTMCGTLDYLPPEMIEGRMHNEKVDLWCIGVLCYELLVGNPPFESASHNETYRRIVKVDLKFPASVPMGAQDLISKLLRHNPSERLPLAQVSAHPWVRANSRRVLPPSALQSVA
This listing pairs compounds with measured IC50.

Here are 8 compounds together with their reported answers.
>  <Compound>
O=C(c1ccc(Nc2nc(C3CC3)cn3c(-c4cn[nH]c4)cnc23)c(F)c1)N1CCNCC1

>  <IC50>
> 20 µM

$$$$
>  <Compound>
Cc1cn2c(-c3cn[nH]c3)cnc2c(Nc2ccc(C(=O)N3CCNCC3)cc2Cl)n1

>  <IC50>
> 20 µM

$$$$
>  <Compound>
Cc1cn2c(-c3cn[nH]c3)cnc2c(Nc2ccc(C(=O)N3CCNCC3)cc2)n1

>  <IC50>
0.232 µM

$$$$
>  <Compound>
Cc1cn2c(-c3cn[nH]c3)cnc2c(Nc2ccc(C(=O)N3CCOCC3)cc2F)n1

>  <IC50>
> 20 µM

$$$$
>  <Compound>
Cc1cn2c(-c3cn[nH]c3)cnc2c(Nc2ccc(C(=O)N3CCNCC3(C)C)cc2F)n1

>  <IC50>
> 20 µM

$$$$
>  <Compound>
O=C(c1ccc(Nc2nc(C3CC3)cn3c(-c4cn[nH]c4)cnc23)c(F)c1)N1CCOCC1

>  <IC50>
> 20 µM

$$$$
>  <Compound>
Cc1cn2c(-c3cn[nH]c3)cnc2c(Nc2ccc(C(=O)N3C[C@H]4CC[C@@H]3CN4)c(Cl)c2)n1

>  <IC50>
0.339 µM

$$$$
>  <Compound>
Cc1cn2c(-c3cn[nH]c3)cnc2c(Nc2ccc(C(=O)N3CCNCC3(C)C)c(Cl)c2)n1

>  <IC50>
1.23 µM

$$$$

[ask] Under Aurora kinase B (Homo sapiens): IC50 value of CCOc1cc(Nc2nc(C)cn3c(-c4cn[nH]c4)cnc23)sc1C(=O)N1CCCC(C)C1 (centres undefined) ?
[reply] < 0.013 µM

---

This listing pairs compounds with measured IC50.
Molecular target: UniProtKB Q13882
Test: Inhibition of phosphorylation of SAM68 in 293 WT-PTK6 cells after 3 hrs
Type: functional, cell-based
Express it in nM; write the number only.

Here are 2 compounds together with their reported answers.
>  <Compound string>
Cc1cn2c(-c3cn[nH]c3)cnc2c(Nc2ccc(C(=O)N3CCNCC3)c(F)c2)n1

>  <Property name>
IC50

>  <Assay result>
153

$$$$
>  <Compound string>
Cc1cn2c(-c3cn[nH]c3)cnc2c(Nc2ccc(C(=O)N3CCCNCC3)c(Cl)c2)n1

>  <Property name>
IC50

>  <Assay result>
113

$$$$

Let us move to another entry and its IC50.
[ask] Under UniProtKB Q13882: IC50 value of Cc1cn2c(-c3cn[nH]c3)cnc2c(Nc2ccc(C(=O)N3C[C@H]4CC[C@@H](C3)N4)c(Cl)c2)n1 ?
[reply] 177
